Measured pIC50 accompanies every entry in the list below.
Biological target: Fucose-binding lectin PA-IIL (Pseudomonas aeruginosa (strain ATCC 15692 / DSM 22644 / CIP 104116 / JCM 14847 / LMG 12228 / 1C / PRS 101 / PAO1))
Sequence (Q9HYN5 whole entry): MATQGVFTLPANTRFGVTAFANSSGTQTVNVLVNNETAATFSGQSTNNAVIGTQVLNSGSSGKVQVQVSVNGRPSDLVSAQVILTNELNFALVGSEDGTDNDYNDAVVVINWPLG
In simple prose, pIC50 is minus the logarithm base ten of a concentration in moles per litre.

• COC1O[C@H](Cn2cc(CCc3ccccc3)nn2)[C@@H](O)C(O)[C@@H]1O (some centres not stated) [LecB Inhibitor Triazoles 2b] = 3.58
• COC1O[C@H](Cn2cc(-c3ccc(C)cc3)nn2)[C@@H](O)C(O)[C@@H]1O (some centres not stated) [LecB Inhibitor Triazoles 2e] = 3.53
• COC1O[C@H](CNS(=O)(=O)c2ccc(C)cc2)[C@@H](O)C(O)[C@@H]1O (some centres not stated) [LecB Inhibitor Sulfonamides 5b] = 4.30
• COC1O[C@H](CNS(=O)(=O)/C=C/c2ccccc2)[C@@H](O)C(O)[C@@H]1O (some centres not stated) [LecB Inhibitor Sulfonamides 5g] = 4.06
• COC1O[C@H](Cn2cc(CO)nn2)[C@@H](O)C(O)[C@@H]1O (some centres not stated) [LecB Inhibitor Triazoles 2a] = 3.24

Reported pIC50 of COC1O[C@H](CNCc2ccccc2)[C@@H](O)C(O)[C@@H]1O (some centres not stated) [LecB Inhibitor Amines 3a] : 3.64

Reported pIC50 of COC1O[C@H](CNC(C)=O)[C@@H](O)C(O)[C@@H]1O (some centres not stated) [LecB Inhibitor Amides 4a] : 3.55
